target: FAK (Homo sapiens, UniProt Q05397); assay: Cell-based capture ELISA for inhibition of FAK autophosphorylation [pY397] in MiaPaCa2 cells; conditions: MIA-PaCa2 cells on fibronectin, 2 h, no plasma; read-out: Mean FAK Cell Mechanistic IC50 MIA-PaCa2
Sequence (Q05397 whole entry): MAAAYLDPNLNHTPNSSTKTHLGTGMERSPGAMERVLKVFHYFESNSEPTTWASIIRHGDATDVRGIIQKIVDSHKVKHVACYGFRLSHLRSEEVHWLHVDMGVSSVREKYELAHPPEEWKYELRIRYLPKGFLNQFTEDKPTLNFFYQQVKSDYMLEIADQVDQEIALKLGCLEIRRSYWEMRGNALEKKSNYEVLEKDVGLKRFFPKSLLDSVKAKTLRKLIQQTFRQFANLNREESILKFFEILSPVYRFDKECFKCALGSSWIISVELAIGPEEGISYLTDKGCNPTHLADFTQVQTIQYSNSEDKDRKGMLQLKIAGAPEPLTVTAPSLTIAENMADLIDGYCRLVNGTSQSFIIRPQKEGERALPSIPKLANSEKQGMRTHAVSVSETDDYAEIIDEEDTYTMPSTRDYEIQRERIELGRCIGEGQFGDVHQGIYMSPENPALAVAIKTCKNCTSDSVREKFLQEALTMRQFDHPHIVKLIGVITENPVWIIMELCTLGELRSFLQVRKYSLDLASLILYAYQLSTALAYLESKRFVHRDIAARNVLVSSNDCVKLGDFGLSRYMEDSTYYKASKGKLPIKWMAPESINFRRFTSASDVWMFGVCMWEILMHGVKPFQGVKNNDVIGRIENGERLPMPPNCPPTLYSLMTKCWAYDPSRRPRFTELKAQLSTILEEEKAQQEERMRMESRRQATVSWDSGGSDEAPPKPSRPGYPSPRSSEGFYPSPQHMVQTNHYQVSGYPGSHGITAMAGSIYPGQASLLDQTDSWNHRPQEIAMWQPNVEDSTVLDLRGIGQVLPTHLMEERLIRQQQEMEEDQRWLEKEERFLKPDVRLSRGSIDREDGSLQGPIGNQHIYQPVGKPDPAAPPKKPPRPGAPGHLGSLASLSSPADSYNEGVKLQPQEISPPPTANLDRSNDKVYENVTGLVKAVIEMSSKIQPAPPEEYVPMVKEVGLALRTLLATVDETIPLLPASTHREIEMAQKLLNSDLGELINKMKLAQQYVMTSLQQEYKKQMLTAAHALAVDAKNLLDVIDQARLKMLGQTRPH

{"columns": ["smiles-repr", "IC50"],
 "data": [
  ["CN(c1ncccc1CNc1nc(Nc2ccc(CP(=O)(O)O)cc2)ncc1C(F)(F)F)S(C)(=O)=O", "1000 to 10000 nM"],
  ["CCOP(=O)(Cc1ccc(Nc2ncc(Br)c(Nc3ccccc3C(=O)NC)n2)cc1)OCC", "< 1000 nM"],
  ["CC(C)P(=O)(Cc1cccc(Nc2ncc(C(F)(F)F)c(NCc3cccnc3N(C)S(C)(=O)=O)n2)c1)C(C)C", "< 1000 nM"],
  ["CCOP(=O)(Cc1ccc(Nc2ncc(C(F)(F)F)c(Nc3ccc(-c4cnn(C)c4)c4c3C(=O)N(C)C4)n2)c(OC)c1)OCC", "< 1000 nM"]
]}

---

Documented IC50 across a set of molecules
target: FAK (Homo sapiens); assay: biochemical
measured-attribute: IC50

{"columns": ["molecule", "measured-attribute", "reported-value"],
 "data": [
  ["CCOP(=O)(Cc1ccc(Nc2ncc(C(F)(F)F)c(Nc3ccc(C(=O)O)c4c3C(=O)N(C)C4)n2)cc1)OCC", "IC50", "< 1000 nM"],
  ["CCOP(C)(=O)Cc1ccc(Nc2ncc(C(F)(F)F)c(Nc3ccc(C#CC(C)(C)O)c4c3C(=O)N(C)C4)n2)cc1 (stereo not shown)", "IC50", "< 1000 nM"],
  ["CCOP(=O)(Cc1cc(F)c(Nc2ncc(C(F)(F)F)c(Nc3ccccc3C(=O)NC)n2)c(OC)c1)OCC", "IC50", "< 1000 nM"],
  ["CCOP(=O)(Cc1ccc(Nc2ncc(C(F)(F)F)c(Nc3ccc(Br)cc3C(=O)NC)n2)c(OC)c1)OCC", "IC50", "< 1000 nM"]
]}

---

target: UniProtKB Q05397; test: biochemical
pIC50: −log10 of the molar value.
Documented pIC50 across a set of compounds

{"columns": ["compound", "pIC50"],
 "data": [
  ["CCOP(=O)(Cc1ccc(Nc2ncc(C(F)(F)F)c(Nc3ccc([C@H]4CC[C@H](O)CC4)cc3C(=O)N(C)C)n2)c(OC)c1)OCC", "> 6.00"],
  ["CCOP(=O)(Cc1ccc(Nc2ncc(C(F)(F)F)c(NCc3cccc([S+](C)[O-])c3)n2)cc1)OCC (stereo not shown)", "> 6.00"],
  ["CCOP(=O)(Cc1ccc(Nc2ncc(C(F)(F)F)c(Nc3ccc(N4CCN(CC(=O)O)CC4)c4c3C(=O)N(C)C4)n2)cc1)OCC", "> 6.00"],
  ["CCOP(=O)(O)c1ccc(Nc2ncc(C(F)(F)F)c(NCc3cccnc3N(C)S(C)(=O)=O)n2)cc1", "> 6.00"]
]}

---

molecular target: FAK (Homo sapiens); assay: Cell-based capture ELISA for inhibition of FAK autophosphorylation [pY397] in U87MG cells; conditions: Mean FAK Cell Mechanistic IC50 + 50% mP U87MG, + 50% mouse plasma

{"columns": ["molecule", "target-or-system", "IC50"],
 "data": [
  ["CCOP(=O)(Cc1ccc(Nc2ncc(C(F)(F)F)c(Nc3ccccc3C(=O)NOC)n2)c(OC)c1)OCC", "FAK (Homo sapiens)", "< 1000 nM"],
  ["CCOP(=O)(Cc1ccc(Nc2ncc(C(F)(F)F)c(Nc3ccc([C@H]4CC[C@@H](C#N)CC4)c4c3C(=O)N(C)C4)n2)c(OC)c1)OCC", "FAK (Homo sapiens)", "< 1000 nM"],
  ["CCOP(=O)(Cc1ccc(Nc2ncc(C(F)(F)F)c(Nc3ccc(C4=CCN(C)CC4)c4c3C(=O)N(C)C4)n2)c(OC)c1)OCC", "FAK (Homo sapiens)", "< 1000 nM"],
  ["CCOP(=O)(Cc1ccc(Nc2ncc(C(F)(F)F)c(Nc3ccc([C@H]4CC[C@@H](C(N)=O)CC4)c4c3C(=O)N(C)C4)n2)c(OC)c1)OCC", "FAK (Homo sapiens)", "< 1000 nM"],
  ["CCOP(=O)(Cc1ccc(Nc2ncc(C(F)(F)F)c(Nc3cccc4c3C(=O)N(C)C4C)n2)c(OC)c1)OCC (stereo not shown)", "FAK (Homo sapiens)", "< 1000 nM"],
  ["CCOP(=O)(Cc1ccc(Nc2ncc(C(F)(F)F)c(Nc3ccc(C4CCNCC4)c4c3C(=O)N(C)C4)n2)c(OC)c1)OCC", "FAK (Homo sapiens)", "< 1000 nM"],
  ["CCOP(=O)(Cc1ccc(Nc2ncc(C(F)(F)F)c(Nc3ccc([C@H]4CC[C@](C)(C(=O)O)CC4)c4c3C(=O)N(C)C4)n2)c(OC)c1)OCC", "FAK (Homo sapiens)", "< 1000 nM"],
  ["CCOP(=O)(Cc1ccc(Nc2ncc(C(F)(F)F)c(Nc3ccc([C@H]4CC[C@H](O)CC4)cc3C(=O)NC)n2)cc1)OCC", "FAK (Homo sapiens)", "1000 to 10000 nM"],
  ["CCOP(=O)(Cc1ccc(Nc2ncc(C(F)(F)F)c(Nc3ccc(-c4cnn(CCCO)c4)c4c3C(=O)N(C)C4)n2)c(OC)c1)OCC", "FAK (Homo sapiens)", "< 1000 nM"],
  ["CCOP(=O)(Cc1ccc(Nc2ncc(C(F)(F)F)c(Nc3ccc(-c4ccc(C(=O)O)cc4)c4c3C(=O)N(C)C4)n2)c(OC)c1)OCC", "FAK (Homo sapiens)", "1000 to 10000 nM"],
  ["CCOP(=O)(Cc1ccc(Nc2ncc(C(F)(F)F)c(Nc3cccc4[nH]cc(C)c(=O)c34)n2)c(OC)c1)OCC", "FAK (Homo sapiens)", "< 1000 nM"],
  ["CNC(=O)c1ccccc1Nc1nc(Nc2ccc(CP(C)(=O)OCCOC)cc2OC)ncc1C(F)(F)F (stereo not shown)", "FAK (Homo sapiens)", "< 1000 nM"],
  ["CCOC(=O)[C@H]1CC[C@H](c2ccc(Nc3nc(Nc4ccc(CP(=O)(OCC)OCC)cc4OC)ncc3C(F)(F)F)c3c(=O)c(C)c[nH]c32)CC1", "FAK (Homo sapiens)", "< 1000 nM"]
]}

---

target: FAK (Homo sapiens, UniProt Q05397); experiment: Cell-based capture ELISA for inhibition of FAK autophosphorylation [pY397] in U87MG cells; settings: Mean FAK Cell Mechanistic IC50 + 50% mP U87MG, + 50% mouse plasma

{"columns": ["compound", "IC50"],
 "data": [
  ["CCOP(=O)(Cc1ccc(Nc2ncc(C(F)(F)F)c(Nc3cccc4c3c(=O)c(C)cn4CC(=O)O)n2)c(OC)c1)OCC [Example 302]", "1000 to 10000 nM"],
  ["CCCP(=O)(CCC)c1cccc(Nc2ncc(C(F)(F)F)c(Nc3ccc([C@H]4CC[C@H](O)CC4)c4c3C(=O)N(C)C4)n2)c1 [Example 171]", "< 1000 nM"],
  ["CCOP(=O)(Cc1ccc(Nc2ncc(C(F)(F)F)c(Nc3ccc([C@H]4CC[C@@H](C(=O)NOC)CC4)c4c3C(=O)N(C)C4)n2)c(OC)c1)OCC [Example 276]", "< 1000 nM"],
  ["CCOP(=O)(Cc1ccc(Nc2ncc(C(F)(F)F)c(Nc3ccc([C@H]4CC[C@@H](C(=O)NC)CC4)c4c3C(=O)N(C)C4)n2)c(OC)c1)OCC [Example 271]", "< 1000 nM"],
  ["CCOP(=O)(Cc1ccc(Nc2ncc(C(F)(F)F)c(Nc3ccc([C@H]4CC[C@@](C)(C(=O)O)CC4)c4c3C(=O)N(C)C4)n2)c(OC)c1)OCC [Example 284]", "< 1000 nM"],
  ["CCOP(=O)(Cc1ccc(Nc2ncc(C(F)(F)F)c(Nc3cccc4c3c(=O)c(C)cn4C)n2)c(OC)c1)OCC [Example 300]", "< 1000 nM"],
  ["CCOP(=O)(Cc1ccc(Nc2ncc(C(F)(F)F)c(Nc3ccc(N4CCNC(C(=O)O)C4)c4c3C(=O)N(C)C4)n2)c(OC)c1)OCC (stereo not shown) [Example 287]", "1000 to 10000 nM"],
  ["CCOP(=O)(Cc1ccc(Nc2ncc(C(F)(F)F)c(Nc3ccccc3C(=O)NC)n2)c(OC)c1F)OCC [Example 147]", "< 1000 nM"],
  ["CCOP(=O)(Cc1ccc(Nc2ncc(C(F)(F)F)c(Nc3cccnc3C(=O)NC)n2)c(OC)c1)OCC [Example 231]", "< 1000 nM"],
  ["CCOP(=O)(Cc1ccc(Nc2ncc(C(F)(F)F)c(Nc3ccc([C@H]4CC[C@@H](C(=O)OCCN(C)C)CC4)c4c3C(=O)N(C)C4)n2)c(OC)c1)OCC [Example 274]", "< 1000 nM"],
  ["CCOP(=O)(Cc1ccc(Nc2ncc(C(F)(F)F)c(Nc3ccc([C@H]4CC[C@H](O)CC4)c4c3C(=O)N(C)C4)n2)c(OC)n1)OCC [Example 286]", "< 1000 nM"],
  ["CCOP(=O)(Cc1ccc(Nc2ncc(C(F)(F)F)c(Nc3cccc4c3c(=O)c(C)cn4CP(=O)(OCC)OCC)n2)c(OC)c1)OCC [Example 303]", "< 1000 nM"],
  ["CCOP(=O)(Cc1ccc(Nc2ncc(C(F)(F)F)c(Nc3cccc(F)c3C(=O)NC)n2)c(OC)c1)OCC [Example 155]", "< 1000 nM"]
]}

The measurements presented in this section are drawn from patent US9096624B2.
